Measured IC50 of individual entries
experimental.system: HIV-1 protease (Human immunodeficiency virus type 1 group M subtype B, UniProt P04585)
Construct: Purified HIV-1 protease was obtained as described above; made in house; host or cells: E. coli K12 L507/pHP10D (NRRL B-18560)
assay.details: biochemical
Format: biochemical
test.settings: read-out: Fluorescence Assay IC50 (converted)
Procedure: C. Preparation of Protease Fraction A culture of E. coli K12 L507/pHP10D was grown to mid-log phase at 32° C. in LB media containing 12.5 μg/ml tetracycline. […] Enzymatic activity was measured by HPLC using the synthetic peptide SQNYPIV as described in Margolin et al., Biochem. Biophys. Res. Commun., 167, 554-560 (1990); the production of the p1 peptide (SQNY) was measured. […] E. Fluorescence HIV-1 Protease Inhibitor Assay […]

molecule | quantity.unit | censoring.sign | IC50
CC(C)(C)NC(=O)c1ccccc1C[C@@H](O)[C@H](Cc1ccccc1)NC(=O)[C@@H](CSc1ccc2ccccc2c1)NS(C)(=O)=O [Example 17A] | nM | = | 1.1
CC(C)(C)NC(=O)c1ccccc1C[C@@H](O)[C@H](Cc1ccccc1)NC(=O)[C@@H](CS(=O)(=O)c1ccccc1)NS(C)(=O)=O [Example 22D] | nM | = | 2.54
CC(C)(C)NC(=O)c1ccccc1C[C@@H](O)[C@H](Cc1ccccc1)NC(=O)[C@@H](CSc1ccc(F)cc1)NC(=O)OC(C)(C)C [Example 37A] | nM | > | 1570
Cn1nnnc1[S+]([O-])C[C@@H](NS(C)(=O)=O)C(=O)N[C@@H](Cc1ccccc1)[C@H](O)Cc1ccccc1C(=O)NC(C)(C)C (stereo partly drawn) [Example 39D] | nM | = | 1.4
CC(C)(C)NC(=O)c1ccccc1C[C@@H](O)[C@H](Cc1ccccc1)NC(=O)[C@@H](CSc1ccc2ccccc2c1)NC(=O)OC(C)(C)C [Example 15A] | nM | > | 1490
CC(C)(C)NC(=O)c1ccccc1C[C@@H](O)[C@H](Cc1ccccc1)NC(=O)[C@H](CC(N)=O)NS(=O)(=O)c1ccccn1 [Example 29C] | nM | = | 371

* * *

experimental.system: HIV-1 protease (Human immunodeficiency virus type 1 group M subtype B, UniProt P04585)
Construct: Purified HIV-1 protease was obtained as described above; made in house; host or cells: E. coli K12 L507/pHP10D (NRRL B-18560)
assay.details: biochemical
Format: biochemical
test.settings: read-out: Fluorescence Assay IC50 (converted)

molecule | IC50
CC(=O)N[C@H](C[S+]([O-])c1ccc2ccccc2n1)C(=O)N[C@@H](Cc1ccccc1)[C@H](O)Cc1ccccc1C(=O)NC(C)(C)C (stereo partly drawn) [Example 24B] | 0.207 nM
CC(C)(C)NC(=O)c1ccccc1C[C@@H](O)[C@H](Cc1ccccc1)NC(=O)[C@@H](CS(=O)(=O)Cc1ccccc1)NS(C)(=O)=O [Example 19E] | 4.66 nM
CC(C)(C)NC(=O)c1ccccc1C[C@@H](O)[C@H](Cc1ccccc1)NC(=O)[C@H](CC(N)=O)NS(=O)(=O)c1cccc2cccnc12 [Example 30] | 18.6 nM
CC(=O)N[C@H](CS(=O)(=O)c1ccc2ccccc2n1)C(=O)N[C@@H](Cc1ccccc1)[C@H](O)Cc1ccccc1C(=O)NC(C)(C)C [Example 24C] | 0.248 nM
CC(=O)N[C@H](CS(=O)(=O)c1ccccc1)C(=O)N[C@@H](Cc1ccccc1)[C@H](O)Cc1ccccc1C(=O)NC(C)(C)C [Example 20C] | 4.88 nM
CC(C)(C)NC(=O)c1ccccc1C[C@@H](O)[C@H](Cc1ccccc1)NC(=O)[C@@H](CC(=O)NCc1ccc2ccccc2n1)NS(C)(=O)=O [Example 11] | 2.52 nM

* * *

Collected IC50 values appear next to each entry.
experimental.system: HIV-1 protease (Human immunodeficiency virus type 1 group M subtype B)
Construct: Purified HIV-1 protease was obtained as described above; made in house; host or cells: E. coli K12 L507/pHP10D (NRRL B-18560)
assay.details: biochemical
Format: biochemical
test.settings: read-out: Fluorescence Assay IC50 (converted)

molecule | IC50 [nM]
CC(C)(C)NC(=O)c1ccccc1C[C@@H](O)[C@H](Cc1ccccc1)NC(=O)[C@@H](CSc1ccc(F)cc1)NS(C)(=O)=O [Example 37C] | 1.79
CC(=O)N[C@H](CS(=O)(=O)c1ccc2ccccc2c1)C(=O)N[C@@H](Cc1ccccc1)[C@H](O)Cc1ccccc1C(=O)NC(C)(C)C [Example 16B] | 0.186
CC(=O)N[C@H](CC(=O)Nc1cnc2ccccc2c1)C(=O)N[C@@H](Cc1ccccc1)[C@H](O)Cc1ccccc1C(=O)NC(C)(C)C | 548

* * *

experimental.system: HIV-1 protease (Human immunodeficiency virus type 1 group M subtype B)
Construct: Purified HIV-1 protease was obtained as described above; made in house; host or cells: E. coli K12 L507/pHP10D (NRRL B-18560)
assay.details: biochemical
Format: biochemical
test.settings: read-out: Fluorescence Assay IC50 (converted)
Criterion: IC50 strictly less than 0.01 µM. Met: met. Not met: not met.

compound | category
Cn1nnnc1SC[C@@H](NS(C)(=O)=O)C(=O)N[C@@H](Cc1ccccc1)[C@H](O)Cc1ccccc1C(=O)NC(C)(C)C [Example 39C] | not met
CC(C)(C)NC(=O)c1ccccc1C[C@@H](O)[C@H](Cc1ccccc1)NC(=O)[C@H](CC(N)=O)NS(=O)(=O)c1cccc2ccccc12 | not met
CC(C)(C)NC(=O)c1ccccc1C[C@@H](O)[C@H](Cc1ccccc1)NC(=O)[C@@H](C[S+]([O-])c1ccc2ccccc2n1)NS(C)(=O)=O (stereo partly drawn) [Example 23E] | met
CC(=O)N[C@H](CS(=O)(=O)Cc1ccccc1)C(=O)N[C@@H](Cc1ccccc1)[C@H](O)Cc1ccccc1C(=O)NC(C)(C)C [Example 18B] | not met
CC(C)(C)NC(=O)c1ccccc1C[C@@H](O)[C@H](Cc1ccccc1)NC(=O)[C@@H](C[S+]([O-])Cc1ccccc1)NS(C)(=O)=O (stereo partly drawn) [Example 19D] | met
CC(=O)N[C@H](CC(=O)NCc1ccccn1)C(=O)N[C@@H](Cc1ccccc1)[C@H](O)Cc1ccccc1C(=O)NC(C)(C)C | not met

* * *

experimental.system: HIV-1 protease (Human immunodeficiency virus type 1 group M subtype B)
Construct: Purified HIV-1 protease was obtained as described above; made in house; host or cells: E. coli K12 L507/pHP10D (NRRL B-18560)
assay.details: biochemical
Format: biochemical
test.settings: read-out: Fluorescence Assay IC50 (converted)

compound | quantity.unit | censoring.sign | IC50
CC(C)(C)NC(=O)c1ccccc1C[C@@H](O)[C@H](Cc1ccccc1)NC(=O)[C@@H](CC(=O)NCc1ccccc1)NS(C)(=O)=O | nM | = | 4.34
CC(C)(C)NC(=O)c1ccccc1C[C@@H](O)[C@H](Cc1ccccc1)NC(=O)[C@@H](CC(=O)OCc1ccccc1)NS(C)(=O)=O | nM | = | 3.69
CC(C)(C)NC(=O)c1ccccc1C[C@@H](O)[C@H](Cc1ccccc1)NC(=O)[C@@H](CSc1ccccc1)NS(C)(=O)=O [Example 22C] | nM | = | 18.9
CC(C)(C)NC(=O)c1ccccc1C[C@@H](O)[C@H](Cc1ccccc1)NC(=O)[C@@H](CC(=O)OCc1ccccc1)NC(N)=O | nM | = | 28.9
CC(C)(C)NC(=O)c1ccccc1C[C@@H](O)[C@H](Cc1ccccc1)NC(=O)[C@@H](C[S+]([O-])c1ccccc1)NS(C)(=O)=O (stereo partly drawn) [Example 22E] | nM | = | 0.978
CC(C)(C)NC(=O)c1ccccc1C[C@@H](O)[C@H](Cc1ccccc1)NC(=O)[C@H](CC(N)=O)NS(=O)(=O)CCc1cccc2ccccc12 | nM | = | 1.04
CC(C)(C)NC(=O)c1ccccc1C[C@@H](O)[C@H](Cc1ccccc1)NC(=O)[C@@H](CC(=O)Nc1ccc2ccccc2n1)NS(C)(=O)=O | nM | = | 13.6
CC(=O)N[C@H](CSCc1ccccc1)C(=O)N[C@@H](Cc1ccccc1)[C@H](O)Cc1ccccc1C(=O)NC(C)(C)C [Example 18A] | nM | = | 12.9
CC(=O)N[C@H](CSc1ccc2ccccc2n1)C(=O)N[C@@H](Cc1ccccc1)[C@H](O)Cc1ccccc1C(=O)NC(C)(C)C [Example 24A] | nM | = | 3.75
Cn1nnnc1SC[C@@H](NC(=O)OC(C)(C)C)C(=O)N[C@@H](Cc1ccccc1)[C@H](O)Cc1ccccc1C(=O)NC(C)(C)C [Example 39A] | nM | > | 1600
CC(=O)N[C@H](CSc1ccccc1)C(=O)N[C@@H](Cc1ccccc1)[C@H](O)Cc1ccccc1C(=O)NC(C)(C)C (relative stereo) [Example 20A] | nM | = | 130
CC(C)(C)NC(=O)c1ccccc1C[C@@H](O)[C@H](Cc1ccccc1)NC(=O)[C@@H](CS(=O)(=O)c1ccc2ccccc2c1)NS(C)(=O)=O [Example 17B] | nM | = | 0.191
